# measurement-target: T1, human calcium-sensing receptor (CaSR) (human, UniProt P41180 20-1078)
# T1 sequence (looked up): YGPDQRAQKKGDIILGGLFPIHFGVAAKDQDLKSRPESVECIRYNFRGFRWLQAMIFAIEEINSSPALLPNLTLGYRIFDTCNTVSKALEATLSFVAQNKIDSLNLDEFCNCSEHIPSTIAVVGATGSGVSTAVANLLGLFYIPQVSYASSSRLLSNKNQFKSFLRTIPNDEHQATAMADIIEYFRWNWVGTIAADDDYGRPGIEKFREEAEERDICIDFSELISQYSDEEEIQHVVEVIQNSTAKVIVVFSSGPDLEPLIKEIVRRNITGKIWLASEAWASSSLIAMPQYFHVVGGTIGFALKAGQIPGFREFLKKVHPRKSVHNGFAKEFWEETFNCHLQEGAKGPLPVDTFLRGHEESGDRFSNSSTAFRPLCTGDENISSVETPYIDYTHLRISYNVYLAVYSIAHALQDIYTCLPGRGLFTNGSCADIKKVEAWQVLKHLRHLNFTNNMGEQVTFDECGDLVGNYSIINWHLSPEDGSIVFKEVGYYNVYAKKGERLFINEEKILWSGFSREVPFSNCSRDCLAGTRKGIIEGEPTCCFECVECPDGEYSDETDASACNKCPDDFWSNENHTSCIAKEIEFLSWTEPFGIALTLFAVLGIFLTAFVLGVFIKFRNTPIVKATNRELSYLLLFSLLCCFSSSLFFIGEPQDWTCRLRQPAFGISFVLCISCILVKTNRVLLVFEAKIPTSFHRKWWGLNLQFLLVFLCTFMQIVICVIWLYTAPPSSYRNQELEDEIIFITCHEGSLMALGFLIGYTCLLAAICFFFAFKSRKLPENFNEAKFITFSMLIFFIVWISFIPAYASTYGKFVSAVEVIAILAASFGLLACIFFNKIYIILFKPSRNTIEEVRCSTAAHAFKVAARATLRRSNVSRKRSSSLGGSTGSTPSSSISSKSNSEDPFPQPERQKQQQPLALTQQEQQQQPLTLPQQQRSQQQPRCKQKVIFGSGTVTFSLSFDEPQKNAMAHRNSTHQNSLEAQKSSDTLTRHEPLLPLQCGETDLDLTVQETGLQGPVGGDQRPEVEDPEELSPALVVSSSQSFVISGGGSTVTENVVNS
# assay-summary: cell-based or functional assay
Ends that are not written are not given here.
binders and their reported EC50 (IP1 production in HEK293 cells that express the human CaSR)
property-label: EC50 (IP1 production in HEK293 cells that express the human CaSR)

INSERT INTO assay_data (binder, observed) VALUES
  ('conjugate of SEQ ID NO: 45 (CHDAPIGYD) and SEQ ID NO: 47 (Ac-CYGRKKRRQRRR-NH2) (not fully specified; cysteine pairing not given here; also: further groups not given here) peptide 1: CHDAPIGYD peptide 2: Ac-CYGRKKRRQRRR-NH2', '21 µM'),
  ('XXXXXXXXXX (HELM PEPTIDE1{[ac].[dC].[dA].[dA].[dA].[dR].[dR].[dR].[dR].[dR].[dR].[am]}$$$$V2.0; SMILES CC(=O)N[C@H](CS)C(=O)N[C@H](C)C(=O)N[C@H](C)C(=O)N[C@H](C)C(=O)N[C@H](CCCNC(=N)N)C(=O)N[C@H](CCCNC(=N)N)C(=O)N[C@H](CCCNC(=N)N)C(=O)N[C@H](CCCNC(=N)N)C(=O)N[C@H](CCCNC(=N)N)C(=O)N[C@H](CCCNC(=N)N)C(N)=O) [Ac-caaarrrrrr-NH2 (SEQ ID NO: 77)]', '4.6 µM'),
  ('XXXXXXX (not fully specified; N-terminal acetyl; C-terminal amide; L-Cys 1 conjugated via a disulfide linkage to an L-Cys residue (C); residues 2-7 D) [Ac-C(C)arrrar-NH2 (SEQ ID NO: 34)]', '2.5 µM'),
  ('Ac-CARRRAR-NH2 [Ac-CARRRAR-NH2 (SEQ ID NO: 75)]', '58 µM'),
  ('XXXXXXXXXXXX (N-terminal acetyl; C-terminal amide; all D-residues (glycine printed in lower case)) [Ac-cygrkkrrqrrr-NH2 (SEQ ID NO: 50)]', '2 µM'),
  ('CXRXRXR (N-terminal acetyl; C-terminal amide; L-Cys 1, D-Ala 2, L-Arg 3, D-Arg 4, L-Arg 5, D-Ala 6, L-Arg 7) [Ac-CaRrRaR-NH2 (SEQ ID NO: 44)]', '5.6 µM'),
  ('XXXXXXX (N-terminal acetyl; free C-terminal acid (-OH); all D-residues) [Ac-carrrar-OH (SEQ ID NO: 74)]', '31 µM'),
  ('XXXXXXX (not fully specified; N-terminal acetyl; C-terminal amide; all D-residues; oxidized glutathione (GS) attached to the side chain of D-Cys 1) [Ac-c(GS)rrrrrr-NH2 (SEQ ID NO: 53)]', '7.8 µM'),
  ('XXXXXXX (N-terminal acetyl; C-terminal amide; all seven residues D; D-Cys 1 conjugated via a disulfide linkage to an L-Cys residue (C)) [Ac-c(C)arrrar-NH2 (SEQ ID NO: 3)]', '10 µM');
